system: Botulinum neurotoxin type F light chain protease (Clostridium botulinum); assay: Botulinum neurotoxin type F light chain protease inhibition, multiplex microsphere flow cytometry, validation set (AID 588459); conditions: multiplex microsphere protease substrate cleavage assay, at 10 µM, stronger effect = higher value
Where a SMILES comes first, the peptide text is derived from it. The star is where a group is joined. Boc = CC(C)(C)OC(=O)*; OBn = c1ccc(CO*)cc1

>  <compound>
CCOc1ccccc1C(=O)NCCC(=O)O

>  <unit.of.measurement>
%

>  <inhibition>
2.8

$$$$
>  <compound>
CCCCC[C@H](O)/C=C/[C@@H]1[C@@H](C/C=C\CCCC(=O)O)[C@@H](O)C[C@H]1O

>  <unit.of.measurement>
%

>  <inhibition>
-2.4

$$$$
>  <compound>
CCOc1ccc(C(NC(C)=O)c2ccc(OC)c(OC)c2)cc1 (configuration not stated)

>  <unit.of.measurement>
%

>  <inhibition>
-2.9

$$$$
>  <compound>
COc1ccc(CC(=O)Nc2cccc(C(=O)Nc3ccccc3C(=O)O)c2)cc1OC

>  <unit.of.measurement>
%

>  <inhibition>
-5.3

$$$$
>  <compound>
CC1=NN(C(=O)c2ccc(Br)cc2)C(O)(c2ccccc2)C1 (configuration not stated)

>  <unit.of.measurement>
%

>  <inhibition>
-2.9

$$$$
>  <compound>
CCOC(=O)c1c(O)c2c([nH]c1=O)CCCC2

>  <unit.of.measurement>
%

>  <inhibition>
2.3

$$$$
>  <compound>
CC(=O)OCC1OC(n2ccc(=O)[nH]c2=O)C(O)C1O (configuration not stated)

>  <unit.of.measurement>
%

>  <inhibition>
-0.4

$$$$
>  <compound>
C=C(CC)C(=O)c1ccc(OCC(=O)O)c(Cl)c1Cl

>  <unit.of.measurement>
%

>  <inhibition>
-6.2

$$$$
>  <compound>
CCCN(CCC)S(=O)(=O)c1ccc(C(=O)O)cc1

>  <unit.of.measurement>
%

>  <inhibition>
2.8

$$$$
>  <compound>
COc1ccc(C2N3CC4(C)CN2CC(C)(C3)C4)cc1OC (configuration not stated)

>  <unit.of.measurement>
%

>  <inhibition>
-0.3

$$$$
>  <compound>
COCCn1c(SCCOc2ccccc2)nc2ccccc2c1=O

>  <unit.of.measurement>
%

>  <inhibition>
1.6

$$$$
>  <compound>
CC(C[N+](C)(C)C)OC(N)=O (configuration not stated)

>  <unit.of.measurement>
%

>  <inhibition>
-0.5

$$$$
>  <compound>
COc1ccc(C(=O)N2c3cc4c(cc3C(C)=CC2(C)C)OCO4)cc1

>  <unit.of.measurement>
%

>  <inhibition>
3.7

$$$$
>  <compound>
CCC(C(=O)OCCN(CC)CC)c1ccccc1 (configuration not stated)

>  <unit.of.measurement>
%

>  <inhibition>
2.4

$$$$
>  <compound>
CC1(C)CC(c2csc(N)n2)CCO1 (configuration not stated)

>  <unit.of.measurement>
%

>  <inhibition>
-0.4

$$$$
>  <compound>
COc1ccc(-c2noc(-c3ccccc3-c3ccccc3)n2)cc1

>  <unit.of.measurement>
%

>  <inhibition>
-1.9

$$$$
>  <compound>
CCOC(=O)c1oc2cc(OCC(N)=O)ccc2c(=O)c1-c1ccc(OC)c(OC)c1

>  <unit.of.measurement>
%

>  <inhibition>
-3.1

$$$$
>  <compound>
Cc1oc(/C=N/NC(=O)CC2(C)OCCO2)cc1Br

>  <unit.of.measurement>
%

>  <inhibition>
3.9

$$$$
>  <compound>
Cc1ccccc1OCC(O)CN1CCN(C)CC1 (configuration not stated)

>  <unit.of.measurement>
%

>  <inhibition>
1

$$$$
>  <compound>
CC1CCN(CCOCCOc2ccccc2Br)CC1

>  <unit.of.measurement>
%

>  <inhibition>
1.2

$$$$
>  <compound>
CN(C)CC/C=C1\c2ccccc2COc2ccccc21

>  <unit.of.measurement>
%

>  <inhibition>
-0.1

$$$$
>  <compound>
O=C(CC1SC(=O)NC1=O)Nc1ccc(Cl)cc1 (configuration not stated)

>  <unit.of.measurement>
%

>  <inhibition>
-1.9

$$$$
>  <compound>
Cc1cc(C(=O)NC(CC(C)C)C(=O)O)cc(C)c1[N+](=O)[O-] (configuration not stated)

>  <unit.of.measurement>
%

>  <inhibition>
-4.1

$$$$
>  <compound>
NC12CC3CC(C1)CC(O)(C3)C2

>  <unit.of.measurement>
%

>  <inhibition>
4.4

$$$$
>  <compound>
Cc1cc(-c2nn(-c3ccccc3F)cc2CN2CCC(O)CC2)c(C)s1

>  <unit.of.measurement>
%

>  <inhibition>
-1.7

$$$$
>  <compound>
O=c1cccc2n1C[C@H]1C[C@@H]2CN2CCCC[C@@H]12

>  <unit.of.measurement>
%

>  <inhibition>
-0.6

$$$$
>  <compound>
O=C1CC(c2ccc(F)cc2)Cc2nc(NCC3CCCO3)ncc21 (configuration not stated)

>  <unit.of.measurement>
%

>  <inhibition>
-1

$$$$
>  <compound>
O=C1NC(=O)C2(Cc3ccccc3N3CCCC32)C(=O)N1c1ccc(Cl)cc1 (configuration not stated)

>  <unit.of.measurement>
%

>  <inhibition>
-0.7

$$$$
>  <compound>
CCOC(=O)Nc1ccc2c(c1)N(C(=O)CCN1CCOCC1)c1ccccc1S2

>  <unit.of.measurement>
%

>  <inhibition>
-1.6

$$$$
>  <compound>
CC(=O)Nc1nnc(S(N)(=O)=O)s1

>  <unit.of.measurement>
%

>  <inhibition>
5.4

$$$$
>  <compound>
O=C(O)[C@@H](O)c1ccccc1

>  <unit.of.measurement>
%

>  <inhibition>
-0.3

$$$$
>  <compound>
CC(C)CC(NC(=O)C(NC(=O)OC(C)(C)C)C(C)C)C(=O)NC(CCC(=O)OCc1ccccc1)C(N)=O (stereo not drawn) (Boc-Val-Leu-Glu(OBn)-NH2; configuration not given here)

>  <unit.of.measurement>
%

>  <inhibition>
2.1

$$$$
>  <compound>
O=C1C(=O)c2ccccc2C(O)=C1c1ccccc1F

>  <unit.of.measurement>
%

>  <inhibition>
4.6

$$$$
>  <compound>
CN1/C(=C\C=Nc2ccccc2)C(C)(C)c2ccccc21

>  <unit.of.measurement>
%

>  <inhibition>
-1.1

$$$$
>  <compound>
O=C(c1ccco1)N(CCC(c1ccccc1)c1ccco1)Cc1ccco1 (configuration not stated)

>  <unit.of.measurement>
%

>  <inhibition>
-0.1

$$$$
>  <compound>
O=C(/C=C/c1ccccc1)NCC1(c2ccccc2)CCOCC1

>  <unit.of.measurement>
%

>  <inhibition>
-1.5

$$$$
>  <compound>
CCc1ccc2oc(=O)cc(CN3CCC(C)CC3)c2c1

>  <unit.of.measurement>
%

>  <inhibition>
5.5

$$$$
>  <compound>
COc1ccc(C(=O)OCc2cc3cccc(C)c3[nH]c2=O)cc1

>  <unit.of.measurement>
%

>  <inhibition>
0.3

$$$$
>  <compound>
CN1CCN(CCCN2c3ccccc3Sc3ccc(Cl)cc32)CC1

>  <unit.of.measurement>
%

>  <inhibition>
-3.9

$$$$
>  <compound>
O[C@@H](CNC[C@H](O)c1ccccc1)c1ccccc1

>  <unit.of.measurement>
%

>  <inhibition>
3.9

$$$$
>  <compound>
CC1(C)S[C@@H]2[C@H](NC(=O)Cc3ccccc3)C(=O)N2[C@H]1C(=O)O

>  <unit.of.measurement>
%

>  <inhibition>
4.2

$$$$
>  <compound>
O=C(c1ccc(Cl)cc1)C1CCCN(C(=O)/C=C/c2ccccn2)C1 (configuration not stated)

>  <unit.of.measurement>
%

>  <inhibition>
2.6

$$$$
>  <compound>
O=c1[nH]c(Cc2ccccc2)nc2c1oc1ccccc12

>  <unit.of.measurement>
%

>  <inhibition>
4.2

$$$$
>  <compound>
Cc1cccc(OCC(=O)Nc2ccc(C(=O)NCC(C)C)cc2)c1

>  <unit.of.measurement>
%

>  <inhibition>
4.2

$$$$
>  <compound>
C=CCOC(=O)C1=C(C)NC(=O)NC1/C=C/c1ccccc1OC (configuration not stated)

>  <unit.of.measurement>
%

>  <inhibition>
1

$$$$
>  <compound>
CCOc1ccc(C(=O)C(C)=O)c(OCC)c1

>  <unit.of.measurement>
%

>  <inhibition>
4.3

$$$$
>  <compound>
Cc1ccc(-c2nn(-c3cccc(F)c3)cc2CN2CCN(c3ccccn3)CC2)o1

>  <unit.of.measurement>
%

>  <inhibition>
-0.1

$$$$

---

Quick reference: GFP response vs DMSO of the listed items.
test: RPL19A-GFP modulators, yeast TOR pathway, confirmation, cell-based, S. cerevisiae, flow cytometry, cherry picks, mother/daughter gates (AID 2270); settings: S. cerevisiae RPL19A-GFP strain, 3 h, measured here: daughter cell gate, at 10 µM, stronger effect = lower value, 100 = same GFP as DMSO wells

>  <compound>
Cc1cccn2c(NCC3CCCO3)c(C(C)C)nc12 (centres undefined)

>  <unit.of.measurement>
%

>  <GFP response vs DMSO>
100

$$$$
>  <compound>
O=C1CN=C(c2ccccc2F)c2cc(Cl)ccc2N1

>  <unit.of.measurement>
%

>  <GFP response vs DMSO>
99

$$$$
>  <compound>
Cc1ccc(/C=C2\C(=O)NC(=O)N(CC3CCCO3)C2=O)s1 (centres undefined)

>  <unit.of.measurement>
%

>  <GFP response vs DMSO>
95.9

$$$$
>  <compound>
Cc1ccc(N2C(=O)NC(=O)/C(=C\c3cn(CC(=O)O)c4ccccc34)C2=O)cc1

>  <unit.of.measurement>
%

>  <GFP response vs DMSO>
100

$$$$
>  <compound>
COc1cc(/C=C/C(=O)c2c(O)n(CCc3ccccc3)c(=O)[nH]c2=O)ccc1O

>  <unit.of.measurement>
%

>  <GFP response vs DMSO>
104

$$$$
>  <compound>
O=C1NC(=O)N(Cc2ccco2)C(=O)/C1=C/c1ccc(-c2cccc([N+](=O)[O-])c2)o1

>  <unit.of.measurement>
%

>  <GFP response vs DMSO>
102

$$$$
>  <compound>
COc1ccc(N2C(=O)/C(=C/c3ccco3)C(=O)NC2=S)cc1

>  <unit.of.measurement>
%

>  <GFP response vs DMSO>
102

$$$$
>  <compound>
O=C1NC(=O)C(=Cc2ccc(Sc3ccccc3)o2)C(=O)N1

>  <unit.of.measurement>
%

>  <GFP response vs DMSO>
93.1

$$$$
>  <compound>
O=c1[nH]c(=S)n(-c2ccccc2)c(O)c1/C=N/N1CCOCC1

>  <unit.of.measurement>
%

>  <GFP response vs DMSO>
103

$$$$
>  <compound>
CN1CCN(c2ccc([N+](=O)[O-])c(Sc3ccccn3)c2)CC1

>  <unit.of.measurement>
%

>  <GFP response vs DMSO>
98.9

$$$$
>  <compound>
O=C1NC(=O)N(CCC2=CCCCC2)C(=O)/C1=C/c1cccs1

>  <unit.of.measurement>
%

>  <GFP response vs DMSO>
97.9

$$$$
>  <compound>
O=C1C(=O)c2ccccc2-c2ccccc21

>  <unit.of.measurement>
%

>  <GFP response vs DMSO>
106

$$$$
>  <compound>
O=C1NC(=O)N(CCc2ccc(F)cc2)C(=O)/C1=C/c1ccco1

>  <unit.of.measurement>
%

>  <GFP response vs DMSO>
99.4

$$$$
>  <compound>
O=c1[nH]c(=O)n(Cc2ccc(F)cc2)c(O)c1C=NCCN1CCCCC1

>  <unit.of.measurement>
%

>  <GFP response vs DMSO>
97

$$$$
